Tested on: P388;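 also: compound exposure lasted 48 hours before growth was measured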
test.name: cells
Format: functional
run.conditions: Mus musculus
Calls of active or inactive are those of the source.
Could you please pick one outcome from this set? active, inactive

q: GET /call?item= C=CC(=O)NC(=N)NC#N returns the recorded outcome of this test.
a: inactive

q: GET /call?item= C=CCCCCn1c2ccccc2c2c(C)c3cnccc3c(C)c21 returns the recorded outcome of this test.
a: inactive

q: GET /call?item= COc1cc2cc(c1Cl)N(C)C(=O)C[C@H](OC(=O)[C@H](C)N(C)C(C)=O)[C@]1(C)O[C@H]1[C@H](C)[C@@H]1C[C@@](O)(NC(=O)O1)[C@H](OC)/C=C/C=C(/C)C2 returns the recorded outcome of this test.
a: active

q: GET /call?item= N/C(S)=N/N=C/c1ccc(O)cn1 returns the recorded outcome of this test.
a: inactive

###

Exercise: for every item that follows, state its recorded EC50.
study.system: Troponin, cardiac muscle (Homo sapiens, UniProt P19429+P45379+P63316)
test.name: Fluorescence-based biochemical high throughput dose response assay for activators of the calcium sensitivity of cardiac Regulated Thin Filaments (RTF). [Related pubchem assays (depositor defined):AID493008, AID493018, AID504382, AID504383]
Type: protein-complex assay
Calls of active or inactive are those of the source.

Examples from the recorded data:
- molecule: "Cn1ncc2c(ON=C(N)c3ccc(C(F)(F)F)cc3)ncnc21"
  EC50: "> 71.5 µM (inactive)"
- molecule: "O=C(CSC1=NS(=O)(=O)c2ccccc2N1)N1CCCCC1"
  EC50: "> 71.5 µM (inactive)"
- molecule: "O=C(Nc1ccccc1)NC1CS(=O)(=O)CC1O (stereo not given)"
  EC50: "> 71.5 µM (inactive)"
- molecule: "N#Cc1ccc(S(=O)(=O)NC2CCCCNC2=O)cc1 (stereo not given)"
  EC50: "> 71.4 µM (inactive)"

Now turn to the next molecule.
q: What value of EC50 has been recorded for this entry: NC(=O)NC(=O)COC(=O)c1cccc(NS(=O)(=O)/C=C/c2ccccc2)c1
a: > 71.5 µM (inactive)

###

study.system: FAD-linked sulfhydryl oxidase ALR (Homo sapiens)
test.name: inhibitors of human ALR sulfhydryl oxidase, dose response, biochemical, H2O2 detection, luminescence, cherry-pick (AID 493248)
The source made the active and inactive calls.
experimental.endpoint: AC50

- molecule: "Sc1n[nH]c(-c2csc3c2CCCC3)n1"
  study.system: "FAD-linked sulfhydryl oxidase ALR (Homo sapiens)"
  AC50: "44 nM (active)"

Provide AC50 values for the following items, in order.
1. Cc1ccc(/C=N/Nc2ccc3ccccc3n2)o1
2. CCN(CC)c1ccc(CN(C(=O)c2cccs2)C2CCS(=O)(=O)C2)cc1 (configuration not stated)
3. CN(C)c1ccc(/C=C/c2nnnn2-c2ccccc2)cc1
4. CN(CCCNC(=O)C1CCCN(S(=O)(=O)c2c[nH]cn2)C1)c1ccccc1 (configuration not stated)
5. Cc1ccc(CN2CCSc3ccc(C(=O)NCCCN4CCN(C)CC4)cc32)cc1
6. Cc1nc(C)c(-c2csc(Nc3ccc(F)cc3)n2)s1

a:
5310 nM (active)
2650 nM (active)
894 nM (active)
85 nM (active)
195 nM (active)
185 nM (active)

###

study.system: Replicative DNA helicase DnaB (Mycobacterium tuberculosis)
test.name: DnaB intein splicing inhibitors, dose response, biochemical, cell-free fluorescence (AID 449749)
Type: functional
Calls of active or inactive are those of the source.
experimental.endpoint: AC50

- molecule: "COc1cc(C(=O)c2nccc3cc(OC)c(OC)cc23)c([N+](=O)[O-])cc1OC"
  AC50: "0.273 µM (active)"
- molecule: "Cc1cc(C(=O)c2ccc(C(C)(C)C)cc2)c(NC(=O)CCl)s1"
  AC50: "7.58 µM (active)"
- molecule: "CCCC(=O)OCCNc1cc(Sc2nc3ccccc3[nH]2)c2nonc2c1[N+](=O)[O-]"
  AC50: "0.855 µM (active)"

Provide AC50 values for the following items, in order.
1. CCOC(=O)C1Nc2c(F)cc(C)cc2C2c3ccccc3CC12 (stereo unspecified)
2. Cc1nn(Cc2ccccc2)c2c1C(c1ccc(Cl)cc1)C(C#N)=C(N)O2 (stereo unspecified)
3. CC1=NN(c2ccccc2)C(=O)/C1=C\c1cc(C)n(-c2cccnc2)c1C
4. O=C(Cc1ccccc1)c1c[nH]c(C(=O)C(Cl)(Cl)Cl)c1
5. CC(C)c1n[nH]c2c1C(c1ccco1)C(C#N)=C(N)O2 (stereo unspecified)
6. Cc1onc(-c2c(Cl)cccc2Cl)c1C(=O)n1nnc2ccccc21
7. COC(=O)CC1(c2cccc3ccccc23)C(=O)c2ccccc2C1=O
8. N#Cc1c(O)nc(SCC(=O)N2c3ccccc3Sc3ccccc32)nc1-c1ccccc1

a:
1: 11.4 µM (active); 2: 6.41 µM (active); 3: 44.8 µM (active); 4: 4.92 µM (active); 5: 32.4 µM (active); 6: 16.4 µM (active); 7: 5.91 µM (active); 8: 2.41 µM (active)

###

study.system: Nonstructural protein 1 (Influenza A virus)
Assay type: functional, Influenza A virus (A/California/07/2009(H1N1))
Activity calls are given as the source filed them.
experimental.endpoint: IC50

Examples from the recorded data:
- compound: "COc1ccc(C)cc1NC(=O)CSc1ccc(-c2ccccn2)nn1"
  IC50: "9.77 µM (active)"
- compound: "O=C(O)c1cccc(NC(=S)N/N=C/c2ccccn2)c1"
  IC50: "4.06 µM (active)"
- compound: "O=C(CC(NCc1ccccn1)C(=O)O)Nc1ccccc1Cl (configuration not stated)"
  IC50: "1.48 µM (active)"
- compound: "CCN(CC)c1ccc(/C=N/C(C#N)=C(\\N)C#N)cc1"
  IC50: "> 100 µM (active)"
- compound: "O=[N+]([O-])c1ccc(O)c(/C=N/Nc2nn[nH]n2)c1"
  IC50: "1.66 µM (active)"

Provide IC50 values for the following items, in order.
1. CN(C)c1nc(-c2ccccn2)nnc1-c1ccccc1
2. COC(=O)c1ccc(N2CCc3ccccc32)c([N+](=O)[O-])c1

a:
1: 1.09 µM (active); 2: 24 µM (active)

###

study.system: Metabotropic glutamate receptor 5 (Rattus norvegicus)
test.name: Identification of a glycine sulfonamide based non-MPEP site positive allosteric potentiator (PAM) of mGlu5 (calcium_assay).
experimental.endpoint: pEC50
Give bare numbers, as −log10 of the molar value.

q: What value of pEC50 has been recorded for this entry: CCS(=O)(=O)N1c2ccccc2CC[C@H]1C(=O)Nc1cccc(Cl)c1
a: 5.76

###

test.name: Luminescence Cell-Based Dose Response HTS to Identify Inhibitors of 5'UTR Stem-Loop Driven Prion Protein mRNA Translation in H4 Neuroglioblastoma Cells. [Related pubchem assays: 1827 (Project Summary), 1813 (Primary HTS)]
Type: functional
Active and inactive are the calls of the source.
experimental.endpoint: EC50

- chemical.string: "Cc1cc(C(=O)N/N=C/c2cc(Br)ccc2OC(=O)c2ccccc2Cl)[nH]n1"
  EC50: "18.8 µM (active)"
- chemical.string: "Cc1ccc(/N=c2\\ssnc2Cl)cc1"
  EC50: "> 120 µM (not active)"
- chemical.string: "CC(C)n1c(SCC(=O)N2c3ccccc3Sc3ccccc32)nc2c1c(=O)n(C)c(=O)n2C"
  EC50: "13.6 µM (active)"
- chemical.string: "COc1ccc(CC(=O)NCc2ccc(-n3cccc3)cc2)cc1OC"
  EC50: "9.97 µM (active)"

Now turn to the next compound.
q: What value of EC50 has been recorded for this entry: Cc1cc2ncc(S(C)(=O)=O)c(N)n2n1
a: > 120 µM (not active)

###

study.system: SUMO-activating enzyme (Homo sapiens, UniProt Q9UBT2)
test.name: SUMOylation inhibitor hit validation, confirmation, SUMOylation inhibitor project, biochemical, AlphaScreen (AID 2018)
Format: functional
Activity calls are given as the source filed them.
experimental.endpoint: IC50

- compound: "NC(=O)CC(NC(=O)Cc1ccc(Br)cc1)c1ccc(N2CCC(Br)CC2)c([N+](=O)[O-])c1 (stereo unspecified)"
  IC50: "28.3 µM (active)"
- compound: "Cc1ccc2nsnc2c1NC(=O)c1ccc(-c2cc(Cl)ccc2Cl)o1"
  IC50: "18 µM (active)"
- compound: "CC1=Nc2nc3c(c4c(C#N)c(N5CCCCC5)nc(c24)N1)CC(=O)N3c1ccc(C(C)C)cc1.CN(C)C=O"
  IC50: "11.7 µM (active)"
- compound: "COC(=O)c1cc(O)cc(OC)c1Oc1cc(C)cc(O)c1C(=O)O [ASTERRIC ACID]"
  IC50: "7.42 µM (active)"
- compound: "COc1cc(/C=N/NC(=O)c2ccccc2O)ccc1OCC(=O)Nc1ccccc1"
  IC50: "16.4 µM (active)"

Now turn to the next compound.
q: What value of IC50 has been recorded for this entry: N#Cc1c(O)nc(SCC(=O)N2c3ccccc3Sc3ccccc32)nc1-c1ccccc1
a: 5.15 µM (active)
